Source: ChEMBL document CHEMBL3745672

# target: Serine/threonine-protein kinase PLK3 (Homo sapiens)
# protocol_description: Inhibition of PLK3 (unknown origin) at 10 uM
endpoint_name: inhibition (%)
Number in %, nothing else.

{"columns": ["structure", "inhibition, %"],
 "data": [
  ["Cn1c(=O)c(Oc2ccc(F)cc2F)cc2cnc(Nc3ccc(N4CCCCC4)cc3)nc21", 29]
]}

Note down inhibition recorded for `Cn1c(=O)c(Oc2ccc(F)cc2F)cc2cnc(NCCc3ccccn3)nc21`
0

Note down inhibition recorded for `CN1CCN(c2ccc(Nc3ncc4cc(Oc5c(Cl)cccc5Cl)c(=O)n(C)c4n3)cc2)CC1`
0

Note down inhibition recorded for `Cn1c(=O)c(Oc2ccc(F)cc2F)cc2cnc(NC3CCN(S(C)(=O)=O)CC3)nc21`
0

Note down inhibition recorded for `CN1CCN(c2ccc(Nc3ncc4cc(Oc5ccc(F)cc5F)c(=O)n(C)c4n3)cc2)CC1`
1

Note down inhibition recorded for `Cn1c(=O)c(Oc2c(Cl)cccc2Cl)cc2cnc(NC3CCOCC3)nc21`
0
